test system: ATP; experiment: switch fluorescence ratio, 500 uM ATP over buffer (Cy3 cluster intensity, sum of 5 cycles each) (fold (ratio)); higher = stronger signal-on switching upon ATP binding; sequences stand for … in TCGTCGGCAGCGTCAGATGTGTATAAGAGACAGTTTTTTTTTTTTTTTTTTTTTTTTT…TC; details: aptamer strand: ATP DNA aptamer (quencher-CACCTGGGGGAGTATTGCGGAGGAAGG + anchor), 100 nM annealed; ATP concentration: 500 uM;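 further: ATP exposure 15 min at 22 °C before imaging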
Assign yes to entries whose switch fluorescence ratio meets or exceeds 1; assign no to the rest.

INSERT INTO measurements (ordered_residues, target_or_test_system, class_label) VALUES
  ('TATTCTTTTT', 'ATP', 'no'),
  ('TTACCATTAG', 'ATP', 'no'),
  ('CACTAACCCT', 'ATP', 'yes'),
  ('AGGCTTTTTT', 'ATP', 'no'),
  ('CCGGTAGGTA', 'ATP', 'no'),
  ('CCGGGGTGGT', 'ATP', 'yes'),
  ('TAGTTGACTG', 'ATP', 'yes'),
  ('GCGGTGACTG', 'ATP', 'no'),
  ('TTTCTGTTTC', 'ATP', 'yes'),
  ('GTTTTAATTC', 'ATP', 'no'),
  ('GGCGCTTATT', 'ATP', 'no'),
  ('CACGCATCAG', 'ATP', 'yes'),
  ('GATTAAAGCT', 'ATP', 'yes'),
  ('AGTTTATTAC', 'ATP', 'yes'),
  ('AACAACTTTT', 'ATP', 'yes'),
  ('TGGGTCCATA', 'ATP', 'no'),
  ('AGTTCCATTT', 'ATP', 'no'),
  ('AAATTTGGGC', 'ATP', 'no'),
  ('AAGAAAGGAA', 'ATP', 'no'),
  ('CCGAGGAATG', 'ATP', 'yes'),
  ('AAGGAGTGAC', 'ATP', 'yes'),
  ('TTGGAGTATA', 'ATP', 'yes'),
  ('TAAAAGTATG', 'ATP', 'no'),
  ('ACTTTGCTAG', 'ATP', 'yes'),
  ('TTTGCCCCTG', 'ATP', 'yes');
